B1: TPR t1 (parent)
chain: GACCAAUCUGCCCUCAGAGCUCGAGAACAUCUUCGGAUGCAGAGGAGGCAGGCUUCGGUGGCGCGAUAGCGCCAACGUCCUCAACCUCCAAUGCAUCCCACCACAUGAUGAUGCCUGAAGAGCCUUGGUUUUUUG

variants of: B1; assay: polymerase ribozyme fitness, log enrichment relative to wild type (log ratio); higher = more active; in vitro selection for triplet polymerase activity
We begin with a simple list: items and their reported polymerase ribozyme fitness (log ratio).
Write the value as a bare number.

Guide cases for polymerase ribozyme fitness (log ratio), answers given:
[[record]]
change = "U9A G10C C79A C101G"
recorded_measurement = -2.55

[[record]]
change = "G39A C64U C98G A103C A111G"
recorded_measurement = -7.64

[[record]]
change = "C4G U78G C80U"
recorded_measurement = -1.48

[[record]]
change = "C13U G47U G135U"
recorded_measurement = -2.07


**Query** Give its polymerase ribozyme fitness (log ratio) value. Item: A2U A6G U92C A121C
**Result** -0.755

**Query** May I ask what polymerase ribozyme fitness (log ratio) has been recorded for G120C U126A ?
**Result** -0.0406

**Query** Can you share its polymerase ribozyme fitness (log ratio)? I mean this variant: C3U A16U
**Result** -2.53

**Query** // returns reported polymerase ribozyme fitness (log ratio) for input C11A
**Result** -1.27

**Query** Entry C4A has what polymerase ribozyme fitness (log ratio)?
**Result** -1.19

**Query** Report polymerase ribozyme fitness (log ratio) for G42U U78A C85U please.
**Result** -2.63
